- Tested on: polymorphonuclear leukocyte migration
- experimental.details: Chemotaxis of polymorphonuclear leukocytes (trans-well, zymosan-activated human serum)
- Assay type: cell-based
- test.settings: 10^-6 M; donor 499
No end group written: not given here.
endpoint.name: percent inhibition (-) or enhancement of polymorphonuclear leukocyte migration (%)
One number for each entry, in %.

                             entry_sequence  value_reported
0  YPIDLYYLMDLSYSMLDDLRNVKKLG [Peptide 1-26]              13
1  FDYPSVGQLAHKLAENNIQPIFAVT [Peptide 2-24]               0
2  RIGFGSFVDKTVLPFVNTHPDKLRN [Peptide 6-25]              -8
3   VGKQLISGNLDAPEGGLDAMMQVA [Peptide 5-24]             -26

Give me percent inhibition (-) or enhancement of polymorphonuclear leukocyte migration for each of these sequences, listed below.
1. IPKSAVGELSEDSSNVVHLIKNAYNKLSS [Peptide 3-29]
2. IGWRNVTRLLVFATDDGFHFAGDGKLGAI [Peptide 4-29]

1. -10
2. 0

---

- System: polymorphonuclear leukocyte migration
- experimental.details: Chemotaxis of polymorphonuclear leukocytes (trans-well, zymosan-activated human serum)
- Format: cell-based
- test.settings: 10^-6 M; donor 591
No end group written: not given here.
endpoint.name: percent inhibition (-) or enhancement of polymorphonuclear leukocyte migration (%)
Numbers only, in %.

Use these answered entries as a reference point.
>>> df
                             entry_sequence                                 system  unit_tag  value_reported
0   VGKQLISGNLDAPEGGLDAMMQVA [Peptide 5-24]  polymorphonuclear leukocyte migration         %              52
1  YPIDLYYLMDLSYSMLDDLRNVKKLG [Peptide 1-26]  polymorphonuclear leukocyte migration         %             -39

Give me percent inhibition (-) or enhancement of polymorphonuclear leukocyte migration for each of these sequences, listed below.
1. IPKSAVGELSEDSSNVVHLIKNAYNKLSS [Peptide 3-29]
2. FDYPSVGQLAHKLAENNIQPIFAVT [Peptide 2-24]
3. IGWRNVTRLLVFATDDGFHFAGDGKLGAI [Peptide 4-29]
4. RIGFGSFVDKTVLPFVNTHPDKLRN [Peptide 6-25]

1: 11; 2: -17; 3: 0; 4: 49

---

Consider the following sequences; for each one, report its percent inhibition (-) or enhancement of polymorphonuclear leukocyte migration.
- System: polymorphonuclear leukocyte migration
- experimental.details: Chemotaxis of polymorphonuclear leukocytes (trans-well, zymosan-activated human serum)
- Format: cell-based
- test.settings: 10^-6 M; donor 593
No end group written: not given here.
Answers are plain numbers, in %.

In [3]: df
Out[3]:
                             entry_sequence  value_reported
0   VGKQLISGNLDAPEGGLDAMMQVA [Peptide 5-24]              -4
1  YPIDLYYLMDLSYSMLDDLRNVKKLG [Peptide 1-26]             -14
2  IGWRNVTRLLVFATDDGFHFAGDGKLGAI [Peptide 4-29]               4
3  FDYPSVGQLAHKLAENNIQPIFAVT [Peptide 2-24]             -22
4  RIGFGSFVDKTVLPFVNTHPDKLRN [Peptide 6-25]              20

Now for the sequence whose percent inhibition (-) or enhancement of polymorphonuclear leukocyte migration we want.
// returns reported percent inhibition (-) or enhancement of polymorphonuclear leukocyte migration for input IPKSAVGELSEDSSNVVHLIKNAYNKLSS [Peptide 3-29]
-6

---

- System: polymorphonuclear leukocyte adhesion to TNF activated endothelial cells
- Assay type: cell-based, human
- test.settings: 10^-5 M; average over PMN donors (# donors in parentheses)
No end group written: not given here.
# note: exactly -30% is not below, so it is f; use t for Average % Change of PMN Adhesion to TNF Activated ECs strictly under it

In [3]: df
Out[3]:
                             entry_sequence  label_class
0  YPIDLYYLMDLSYSMLDDLRNVKKLG [Peptide 1-26]            t
1  IGWRNVTRLLVFATDDGFHFAGDGKLGAI [Peptide 4-29]            t
2  RIARLKEKVKTLKAKNSELASTANMLREQVAQLKQKVMNHA [JUN-k, reference compound]            f

Determine whether this sequence shows Average % Change of PMN Adhesion to TNF Activated ECs lower than -30% (ties excluded): CRIARLEEKVKTLKAQNSELASTANMLREQVAQLKQKVMNHA [WT, reference compound]
f

Determine whether this sequence shows Average % Change of PMN Adhesion to TNF Activated ECs lower than -30% (ties excluded): RIARLEEKVKTLKAENSELASTANMLREEVAQLEQEVMNHA [Peptide 2X, reference compound]
f

---

- Tested on: polymorphonuclear leukocyte adhesion to TNF activated endothelial cells
- Assay type: cell-based, human
- test.settings: 10^-6 M; average over PMN donors (# donors in parentheses)
No end group written: not given here.
endpoint.name: Average % Change of PMN Adhesion to TNF Activated ECs (%)
Give bare numbers, in %.

Give me Average % Change of PMN Adhesion to TNF Activated ECs for each of these sequences, listed below.
1. YPIDLYYLMDLSYSMLDDLRNVKKLG [Peptide 1-26]
2. VGKQLISGNLDAPEGGLDAMMQVA [Peptide 5-24]
3. DGFHFAGDGKLGAI [Peptide 4-14]
4. SYSMLDDLRNVKKLG [Peptide 1-15]
5. AHKLAENNIQPIFAVT [Peptide 2-16]
6. KTVLPFVNTHPDKLRN [Peptide 6-16]

-6
-13
-4
-9
-1
-11

Give me Average % Change of PMN Adhesion to TNF Activated ECs for each of these sequences, listed below.
1. FDYPSVGQLAHKLAENNIQPIFAVT [Peptide 2-24]
2. IPKSAVGELSEDSSNVVHLIKNAYNKLSS [Peptide 3-29]
3. IGWRNVTRLLVFATDDGFHFAGDGKLGAI [Peptide 4-29]

-10
-5
-48

---

- Test system: polymorphonuclear leukocyte migration
- experimental.details: Chemotaxis of polymorphonuclear leukocytes (trans-well, zymosan-activated human serum)
- Type: cell-based
- test.settings: 10^-5 M; donor 195
- Procedure: The materials and methods for ascertaining the chemotactic inhibitory properties of peptides are generally known in the art, and the preferred procedure is described by Capsoni, et al., 1989, J. of Immunol. Meth., 120:125. Generally, chemotaxis is determined by positioning the leukocytes and a chemotactic substance on opposite sides of a membrane in appropriate culture media. […]
No end group written: not given here.
endpoint.name: percent inhibition (-) or enhancement of polymorphonuclear leukocyte migration (%)
Numbers only, in %.

Use these answered entries as a reference point.
                             entry_sequence  value_reported
0  YPIDLYYLMDLSYSMLDDLRNVKKLG [Peptide 1-26]             -41
1  FDYPSVGQLAHKLAENNIQPIFAVT [Peptide 2-24]             -33
2   VGKQLISGNLDAPEGGLDAMMQVA [Peptide 5-24]             -56

Give me percent inhibition (-) or enhancement of polymorphonuclear leukocyte migration for each of these sequences, listed below.
1. IPKSAVGELSEDSSNVVHLIKNAYNKLSS [Peptide 3-29]
2. IGWRNVTRLLVFATDDGFHFAGDGKLGAI [Peptide 4-29]

11
-93

// returns reported percent inhibition (-) or enhancement of polymorphonuclear leukocyte migration for input RIGFGSFVDKTVLPFVNTHPDKLRN [Peptide 6-25]
11

---

- Test system: polymorphonuclear leukocyte adhesion to TNF activated endothelial cells
- Type: cell-based, human
- test.settings: 10^-5 M; average over PMN donors (# donors in parentheses)
No end group written: not given here.
Consider the following sequences; for each one, report its Average % Change of PMN Adhesion to TNF Activated ECs.

Use these answered entries as a reference point.
>>> df
                             entry_sequence                                    system  value_reported
0          SSNVVHLIKNAYNKLSS [Peptide 3-17]  polymorphonuclear leukocyte adhesion to TNF activated endothelial cells            +43%
1  IPKSAVGELSEDSSNVVHLIKNAYNKLSS [Peptide 3-29]  polymorphonuclear leukocyte adhesion to TNF activated endothelial cells            +12%

Now for the sequence whose Average % Change of PMN Adhesion to TNF Activated ECs we want.
Fill in the recorded Average % Change of PMN Adhesion to TNF Activated ECs for this sequence, with polymorphonuclear leukocyte adhesion to TNF activated endothelial cells as test system: DGFHFAGDGKLGAI [Peptide 4-14]
+28%
